Hey, just so you know, these numbers are from paper PMC8809517.

Would you mind telling me the reported Kd of each entry?
Biological target: T1, GFP-9S library array, motif 4 ND N98G;D124S (synthetic construct, N98G;D124S)
T1 chain: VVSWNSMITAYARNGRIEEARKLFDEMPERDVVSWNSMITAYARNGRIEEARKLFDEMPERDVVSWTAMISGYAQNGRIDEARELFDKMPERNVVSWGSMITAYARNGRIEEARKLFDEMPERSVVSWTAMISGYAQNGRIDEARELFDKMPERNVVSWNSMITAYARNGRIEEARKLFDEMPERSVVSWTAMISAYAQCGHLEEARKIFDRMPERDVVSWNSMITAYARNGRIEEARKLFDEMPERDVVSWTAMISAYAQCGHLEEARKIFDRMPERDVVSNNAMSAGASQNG
Experiment: high-throughput RNA pulldown from lysate on Ni-NTA beads; HRP: 50 mM Tris pH 8, 150 mM NaCl, 1 mM beta-mercaptoethanol, 50 ug/ml BSA, 3 ug/ml yeast RNA, 0.5% heparin; ITC and FP: Tris pH 8, 200 mM KCl, 5% glycerol; MST: 50 mM Tris pH 8, 200 mM NaCl, 1 mM DTT, BSA, heparin, 0.05% Tween 20
Conditions: tags: N-terminal His-eGFP; label: 5' Cy5
Numeric only. Scale: nM

Ask | Complete the entry with Kd for AUUACACGUGA (ssRNA) [Cy5-rpoA]
Reply | 629

Ask | Complete the entry with Kd for AUUAGACGUGA (ssRNA) [Cy5-rpoA-G]
Reply | 549
